| compound | value.units | melting point |
| --- | --- | --- |
| CCC1CCc2ccccc2C1 (stereo unspecified) | °C | -42.8 |
| c1ccc(N2CN(c3ccccc3)CN(c3ccccc3)C2)cc1 | °C | 144 |
| COc1ccc(C=O)cc1O | °C | 114 |
| Oc1cccc2cccnc12 | °C | 75.5 |
| CC/C=C\C(C)(C)C | °C | -137 |
| O=[N+]([O-])c1cc(S(=O)(=O)Nc2ccccc2)ccc1Nc1ccccc1 | °C | 156 |
| Cc1ccc(S(=O)(=O)Cl)cc1 | °C | 71 |
| C[C@]12CCc3c(ccc4cc(O)ccc34)[C@@H]1CCC2=O | °C | 258 |
| CC(C)(C)C(=O)OCOC(=O)[C@@H]1N2C(=O)[C@@H](N=CN3CCCCCC3)[C@H]2SC1(C)C | °C | 119 |
| O=C1CCCC1 | °C | -51.3 |
| O=C(O)c1ccc(NC(=O)[C@H](Cc2ccc(O)cc2)NC(=O)c2ccccc2)cc1 | °C | 241 |
| S=C1NC(=S)C(c2ccccc2)(c2ccccc2)N1 | °C | 263 |
| Nc1ccc([N+](=O)[O-])c2c1C(=O)c1c(Cl)ccc(Cl)c1C2=O | °C | 307 |
| O=C1NC(=O)C(c2ccccc2)(c2ccccc2)N1 | °C | 296 |
| CC(C)(C)NC(=O)[C@H]1CC[C@H]2[C@@H]3CC[C@H]4NC(=O)C=C[C@]4(C)[C@H]3CC[C@]12C | °C | 253 |
| CCCCCCCCCCCCCCCC(=O)c1ccccc1 | °C | 59 |
| O=C(O)c1ccccc1O | °C | 158 |
| NC1=NCCS1 | °C | 85.3 |
| CCCCCCCCCCCCCCC(=O)OC | °C | 18.5 |
| COc1cc2c(cc1OC)C(CCc1ccc(Cl)cc1)N(C)CC2 (stereo unspecified) | °C | 110 |
| C=Cc1cccc([N+](=O)[O-])c1 | °C | -10 |
| CC(C)(O)CCl | °C | -20 |
| ClC1=C(Cl)C2(Cl)C(CBr)CC1(Cl)C2(Cl)Cl (stereo unspecified) | °C | 77 |
| CCCNCCC | °C | -63 |
| CC(C)(O)Cc1ccccc1 | °C | 24 |
| CC[C@H]1O[C@]2(CC[C@@H]1C)C[C@@H]1C[C@@H](CC=C(C)C[C@@H](C)C=CC=C3CO[C@@H]4[C@H](O)C(C)=C[C@@H](C(=O)O1)[C@]34O)O2 | °C | 214 |

---

test.readout: boiling point (°C)

| compound | test.readout | value.units | value.measured |
| --- | --- | --- | --- |
| COC(=O)[C@]1(C)CCC[C@@]2(C)[C@H]1CC=C1C=C(C(C)C)CC[C@@H]12 | boiling point | °C | 362 |
| CC(C)S | boiling point | °C | 52.5 |
| c1ccc2c(c1)ccc1cccnc12 | boiling point | °C | 339 |
| CC(=CC(=O)c1ccccc1)c1ccccc1 | boiling point | °C | 342 |
| OCC1CCCO1 (stereo not drawn) | boiling point | °C | 178 |
| CCC(C)[N+](=O)[O-] (stereo not drawn) | boiling point | °C | 140 |
| CCN(CC)C(=O)CC(C)C | boiling point | °C | 211 |
| C=C(Cl)C#N | boiling point | °C | 88.5 |
| CCCCC(C)C | boiling point | °C | 90 |
| CC(C)C(=O)C(=O)O | boiling point | °C | 170 |
| O=C(C(=O)c1ccccc1)c1ccccc1 | boiling point | °C | 347 |
| CNc1ccc(C)cc1 | boiling point | °C | 210 |
| Cc1c(Cl)cccc1Cl | boiling point | °C | 198 |
| CCC(CC)CC(C)C | boiling point | °C | 134 |
| COc1ccccc1N(C)C | boiling point | °C | 210 |
| C=C(C)C(=O)OCC(F)(F)C(F)F | boiling point | °C | 124 |
| C=CC[N+](=O)[O-] | boiling point | °C | 128 |
| C=CCSC | boiling point | °C | 92 |

---

# Lookup of reported boiling point keyed by entry

| molecule | boiling point / °C |
| --- | --- |
| COC(=O)C(C)(C)C | 101 |
| CCOC(=O)C#N | 116 |
| C/C=C(\C)C=O | 117 |
| ClC(Cl)(Cl)c1ccccc1 | 221 |
| CC(C)(C)CC(=O)Cl | 130 |
| ClC=C(Cl)C(Cl)Cl | 162 |
| CC1=CCCC(C)(C)C1CO (stereo not drawn) | 215 |
| CCOCCBr | 128 |
| C=Cc1c(C)cc(C)cc1C | 209 |
| CC1CCCCC1C (stereo not drawn) | 126 |
| FC(F)(Cl)C(F)(Cl)Cl | 47.7 |
| O=C(OC(=O)c1ccccc1)c1ccccc1 | 360 |
| ClCc1cccc(CCl)c1 | 252 |
| FC(Cl)(Cl)Cl | 23.7 |
| CCCCCCl | 108 |
| c1ccc2c(c1)CCC2 | 178 |
| FC(Cl)(Cl)C(Cl)Cl | 116 |
| Nc1c(F)c(F)cc(F)c1F | 158 |

---

test.readout: melting point (°C)

| structure.smiles.string | value.measured |
| --- | --- |
| FC(F)(F)C(F)(F)C(F)(F)C(F)(C(F)(F)F)C(F)(F)F | -119 |
| O=C(O)Cc1ccco1 | 68.5 |
| CCc1cc2ccccc2c2ccccc12 | 62.5 |
| CCCBr | -110 |
| C[C@@H]1CC[C@@]2(OC1)O[C@H]1C[C@H]3[C@@H]4CC[C@H]5C[C@@H](O)CC[C@]5(C)[C@H]4CC(=O)[C@]3(C)[C@H]1[C@@H]2C | 266 |
| c1ccc2c(c1)OCCOCCOc1ccccc1OCCOCCO2 | 163 |

---

// f strictly below 200 °C in boiling point; t otherwise

| molecule | qualitative.label |
| --- | --- |
| CCCCCCCCI | t |
| Cc1cc(Cl)nc(Cl)n1 | t |
| Cc1ccc2[nH]ccc2c1 | t |
| Clc1c(Cl)c(Cl)c2c(c1Cl)Oc1c(Cl)c(Cl)c(Cl)c(Cl)c1O2 | t |
| C=CC1CCCCC1 | f |
| C=CC#CCC | f |
| O=[N+]([O-])c1cccc(I)c1 | t |
| ClC(Cl)C(Cl)(Cl)C(Cl)Cl | t |
| COC(=O)CCl | f |
| CCOCc1ccccc1 | f |
| CCCCCOC(=O)CCC | f |
| CCOC(=O)C(Br)C(C)C (configuration not stated) | f |
| CC(=O)c1ccc(O)cc1C | t |
| ClC(C(Cl)(Cl)Cl)C(Cl)(Cl)Cl | t |

---

test.readout: melting point (°C)

| structure.smiles.string | test.readout | value.units | value.measured |
| --- | --- | --- | --- |
| CCOC | melting point | °C | -113 |
| OC(c1ccccc1)(c1ccccc1)C1CCNCC1 | melting point | °C | 160 |
| CC(C)OC(=O)C1(S(=O)(=O)c2ccc([N+](=O)[O-])cc2)CCCCC1 | melting point | °C | 110 |
| CC(C)S | melting point | °C | -130 |
| Nc1c(Cl)c(Cl)c(Cl)c(Cl)c1Cl | melting point | °C | 235 |
| S=C(Nc1ccccc1)c1ccccc1 | melting point | °C | 102 |
| CCOc1c(N2CCOCC2)cnn(C)c1=O | melting point | °C | 90 |
| Cc1cc(F)ccc1N | melting point | °C | 14.2 |

---

melting point reference
test.readout: melting point (°C)

| compound | test.readout | value.measured |
| --- | --- | --- |
| OCc1cccc2ccccc12 | melting point | 64 |
| CC(C)/N=c1/cc2n(-c3ccc(Cl)cc3)c3ccccc3nc-2cc1Nc1ccc(Cl)cc1 | melting point | 211 |
| c1ccc(Nc2ccccn2)nc1 | melting point | 90.5 |
| Cc1cc(Cl)ccc1[N+](=O)[O-] | melting point | 25.5 |
| COP(=S)(OC)Oc1ccc([N+](=O)[O-])cc1 | melting point | 35.5 |
| CCCCCCCCCCCCCCCCc1ccccc1 | melting point | 27 |
| Cc1cc(O)c(C(C)C)cc1Cl | melting point | 63 |
| O=C(O)c1ccccc1Nc1ccccc1 | melting point | 184 |
| O=C(O)c1cccc(Br)c1 | melting point | 155 |
| BrCC1CO1 (stereo not given) | melting point | -40 |
| C=C(CCl)CCl | melting point | -14 |
| CC#CCCCCCCCC | melting point | -30.1 |
| Nc1cccc(C(=O)c2cccc(N)c2)c1 | melting point | 174 |
| Cc1ccc(N)cc1N | melting point | 99 |
| C=CCCCCCCCCC(=O)O | melting point | 24.5 |
| CC(C)[C@@H](C)/C=C/[C@@H](C)[C@H]1CC[C@H]2C3=CC=C4C[C@@H](O)CC[C@]4(C)[C@H]3CC[C@]12C | melting point | 127 |
| NS(=O)(=O)c1ccc(SCCCO)c([N+](=O)[O-])c1 | melting point | 163 |
| NN=C(c1ccccc1)c1ccccc1 | melting point | 96.5 |
| CC(=O)OCC(=O)[C@H]1CC[C@H]2[C@@H]3CC[C@H]4C[C@H](O)CC[C@]4(C)[C@H]3C(=O)C[C@]12C | melting point | 176 |
| CCCCC(C)CC (stereo not given) | melting point | -100 |
| CCCCn1c(=O)c2c(ncn2C)n(C)c1=O | melting point | 108 |
| Cl.N=C(N)SCc1ccccc1 | melting point | 173 |
| NC(=O)NC(=O)Cc1ccccc1 | melting point | 215 |
| COc1ccc(C(N)=O)cc1OC | melting point | 164 |
| Clc1c(Cl)c(Cl)c2ccccc2c1Cl | melting point | 198 |
| O=C(CCCN1CCC2(CC1)C(=O)NCN2c1ccccc1)c1ccc(F)cc1 | melting point | 142 |
| Clc1cc(Cl)c2c(c1Cl)Oc1c(Cl)cc(Cl)c(Cl)c1O2 | melting point | 238 |
| C[C@]12CCC(=O)C[C@@H]1CC[C@@H]1[C@@H]2CC[C@]2(C)[C@@H](O)CC[C@@H]12 | melting point | 181 |
| CC(=O)CC(=O)Nc1ccc(-c2ccc(NC(=O)CC(C)=O)c(C)c2)cc1C | melting point | 212 |
| CC(C)=CCN=C(N)N | melting point | 62.5 |
| CC(C)CC(C)O (stereo not given) | melting point | -90 |
| C[N+]12CCC(CC1)C(OC(=O)C(O)(c1ccccc1)c1ccccc1)C2.[Br-] (stereo not given) | melting point | 240 |
| Clc1cc2c(oc3c(Cl)c(Cl)c(Cl)cc32)c(Cl)c1Cl | melting point | 240 |
| O=C1[C@@H]2C[C@H](CN3CCCC[C@@H]23)[C@H]2CCCCN12 | melting point | 111 |
| Cc1cccc(-c2ccccc2)c1 | melting point | 4.5 |
| c1cnc2ccc3ncccc3c2c1 | melting point | 177 |
| Nc1cccc(F)c1 | melting point | -5 |
| CCOC(=O)CCCC(=O)OCC | melting point | -24.1 |
| OCC(CO)(CO)COCC(CO)(CO)CO | melting point | 221 |
| CC(C)(C)C(=O)O | melting point | 35 |
| COc1ccc(NC(C)=O)cc1 | melting point | 131 |
| Cc1ccc(Cl)c(N)c1 | melting point | 29.5 |
| C/C=C(/C)CCC | melting point | -118 |
| O=C(O)c1cc2ccccc2cc1O | melting point | 222 |
| Cc1c(F)c(F)c(F)c(F)c1F | melting point | -29.8 |
| c1ccc(-c2ccc(-c3ccc(-c4ccccc4)cc3)cc2)cc1 | melting point | 320 |
| CC[C@H]1C[C@@H]2C[C@H]3c4[nH]c5cc(OC)ccc5c4CC[N@@](C2)[C@@H]13 | melting point | 214 |
| CC1=C[C@H](O)CC(C)(C)[C@H]1/C=C/C(C)=C/C=C/C(C)=C/C=C/C=C(C)/C=C/C=C(C)/C=C/C1=C(C)C[C@@H](O)CC1(C)C | melting point | 196 |
| CC(=O)NS(=O)(=O)c1ccc(N)cc1 | melting point | 183 |
| CC1=CCCC(=O)C1 | melting point | -21 |
| CCOCCOC(=O)c1ccccc1C(=O)OCCOCC | melting point | 34 |
| N#CCc1ccccc1Cl | melting point | 24 |
| CCC1(c2ccccc2)C(=O)NC(=O)N(C)C1=O (stereo not given) | melting point | 176 |
| O=CC=Cc1ccc([N+](=O)[O-])cc1 | melting point | 142 |
| CCNc1nc(NC(C)C(C)C)nc(SC)n1 (stereo not given) | melting point | 65 |
